Could you please report measured T/C for the items listed next?
- Tested on: BDF1 mice, Adenocarcinoma 755 s.c., tumor weight T/C
- protocol: NCI In Vivo Anticancer Drug Screen. Data for tumor model Adenocarcinoma 755 (subcutaneous) in B6D2F1 (BDF1) mice
- reported conditions: endpoint: mean tumor weight; dose: 1.5 mg/kg/injection; schedule: Q01DX011 (ip); vehicle: carboxymethylcellulose (CMC); higher = larger tumour

In the examples that follow, each entry is paired with its recorded T/C.
| smiles structure | study system | T/C |
| --- | --- | --- |
| Nc1c(Br)cc2c(c1Br)Cc1cc([N+](=O)[O-])ccc1-2 | BDF1 mice, Adenocarcinoma 755 s.c., tumor weight T/C | 85 % of control |
| Cc1cnc(Cl)nc1Sc1nc(N)nc2nc[nH]c12 | BDF1 mice, Adenocarcinoma 755 s.c., tumor weight T/C | 11 % of control |
| c1ccc(CSc2ncnc3nc[nH]c23)nc1 | BDF1 mice, Adenocarcinoma 755 s.c., tumor weight T/C | 40 % of control |
| O=C(O)c1cccc2c3c(cc([N+](=O)[O-])c12)CCCC3 | BDF1 mice, Adenocarcinoma 755 s.c., tumor weight T/C | 85 % of control |

I'm hoping you can list T/C for every compound here, please.
1. Nc1nc(SC2=NCCN2)c2[nH]cnc2n1
2. CCOC(=O)c1c(C#N)c(Cl)nc(C)c1[N+](=O)[O-]
3. Nc1nc(SCc2ccccc2)c2[nH]cnc2n1

Result:
["6 % of control", "60 % of control", "41 % of control"]

* * *

- Tested on: BDF1 mice, Adenocarcinoma 755 s.c., tumor weight T/C
- protocol: NCI In Vivo Anticancer Drug Screen. Data for tumor model Adenocarcinoma 755 (subcutaneous) in B6D2F1 (BDF1) mice
- reported conditions: endpoint: mean tumor weight; dose: 125.0 mg/kg/injection; schedule: Q01DX011 (ip); vehicle: methylcellulose (MC); higher = larger tumour
readout label: T/C

In the examples that follow, each entry is paired with its recorded T/C.
| compound | T/C |
| --- | --- |
| CNc1nc(SCc2ccc(Cl)cc2Cl)ncc1C | 73 % of control |
| CSc1ncc(Br)c(Nc2ccccc2C)n1 | 117 % of control |
| CCCCNc1nc(N)nc2c1nnn2CCCC | 78 % of control |
| N#Cc1ccc(Nc2cc(Cl)nc(N)n2)cc1 | 97 % of control |

Now for another entry.
Problem: Look up T/C: CCCCOP(=O)(OCCCC)OCC1OC(n2cnc3c(=S)nc[nH]c32)C(O)C1O (stereo not given)
Result: 46 % of control

* * *

- Tested on: BDF1 mice, Adenocarcinoma 755 s.c., tumor weight T/C
- protocol: NCI In Vivo Anticancer Drug Screen. Data for tumor model Adenocarcinoma 755 (subcutaneous) in B6D2F1 (BDF1) mice
- reported conditions: endpoint: mean tumor weight; dose: 225.0 mg/kg/injection; schedule: Q01DX011 (ip); vehicle: carboxymethylcellulose (CMC); higher = larger tumour
Could you please report measured T/C for the items listed next?

In the examples that follow, each entry is paired with its recorded T/C.
| compound | T/C |
| --- | --- |
| Cn1cnc(N)c(NC=O)c1=O | 115 % of control |
| CC(CNC(=O)CCOS(C)(=O)=O)NC(=O)CCOS(C)(=O)=O (centres undefined) | 7 % of control |
| NS(=O)(=O)c1ncc2[nH]cnc2n1 | 111 % of control |

Now for another entry.
Problem: Reported T/C for BDF1 mice, Adenocarcinoma 755 s.c., tumor weight T/C, given NS(=O)(=O)c1nc(Cl)c2[nH]cnc2n1 ?
Result: 69 % of control
